- Tgt: KLK6 (Homo sapiens, UniProt Q92876)
- Assay notes: KLK6 enzymatic inhibition assay (fluorogenic Boc-Phe-Ser-Arg-AMC substrate)
- Assay type: biochemical
- Design: made in house
- Applied conditions: synthesized inhibitors (Table 3); 8.6 = assay limit; read-out: KLK6 pIC50 (converted)
# key: entry, value: log10(IC50)
Measured property: log10(IC50) (log10 of the value in nM)

>>> df
                                    compound  numeric_readout
 0  CC[C@H](NC(=O)[C@H]1CN(c2ccc(CN)cc2)C(=O)O1)c1cccc2ccccc12             2.50
 1  C[C@H](NC(=O)[C@H]1CN(c2ccc(C(=N)N)cc2)C(=O)O1)c1ccc2ccccc2c1             2.00
 2  CC[C@H](NC(=O)[C@H]1CN(c2ccc(C(=N)N)nc2)C(=O)O1)c1cccc2ccccc12             0.70
 3  COc1cccc(C(C)(C)NC(=O)[C@H]2CN(c3ccc(C(=N)N)cc3)C(=O)O2)c1             2.20
 4  CC(C)(NC(=O)[C@H]1CN(c2ccc(C(=N)N)cc2)C(=O)O1)c1cccc2ccccc12             1.90
 5  COc1cccc([C@@H](NC(=O)[C@H]2CN(c3ccc(C(=N)N)cc3)C(=O)O2)C2CC2)c1             1.50
 6  CC[C@H](NC(=O)[C@H]1CN(c2ccc(C(=N)N)cc2)C(=O)O1)c1cccc2ccccc12             0.40
 7  COc1cccc(C(C)NC(=O)C2CC(=O)N(c3ccc(C(=N)N)cc3)C2)c1 (centres unmarked)             2.50
 8  C[C@H](NC(=O)[C@H]1CN(c2ccc(C(=N)N)cc2)C(=O)O1)c1cccc2ccccc12             1.10
 9  COc1cccc(CNC(=O)[C@H]2CN(c3ccc(C(=N)N)cc3)C(=O)O2)c1             3.60
10  COc1cccc([C@H](C)NC(=O)[C@@H]2CCN(c3ccc(C(=N)N)cc3)C2)c1             2.90
11  CC(C)(NC(=O)[C@H]1CN(c2ccc(C(=N)N)cc2)C(=O)O1)c1ccccc1             2.90
12  COc1cccc([C@H](C)NC[C@H]2CN(c3ccc(C(=N)N)cc3)C(=O)O2)c1             4.00
13  CC(C)(NC(=O)[C@H]1CN(c2ccc(C(=N)N)cc2)C(=O)O1)C(=O)Nc1ccccc1             1.50
14  CC[C@H](NC(=O)[C@H]1CN(c2ccc(C(=N)N)cc2)C(=O)O1)c1cccc(OC)c1             1.50
15  COc1cccc([C@H](C)NC(=O)[C@H]2CN(c3ccc(C(=N)N)cc3)C(=O)O2)c1             2.40
16  CC[C@H](NC(=O)[C@H]1CN(c2ccc(C(=N)N)cc2)C(=O)O1)c1ccnc2ccccc12             2.10
